substrate: F protein of hRSV strain Long (human respiratory syncytial virus, strain Long (ATCC VR-26)) (UniProt P12568); test: cell-based or functional assay
Metric Name: Neutralization IC50 (nM), Long (first assay)

| Binder | Units | Numeric Value |
| --- | --- | --- |
| NC41 (VHH) VHH: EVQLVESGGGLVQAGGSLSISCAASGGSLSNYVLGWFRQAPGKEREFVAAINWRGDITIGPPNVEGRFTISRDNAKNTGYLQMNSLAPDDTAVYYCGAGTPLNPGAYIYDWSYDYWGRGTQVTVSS | nM | 202 |
| NC41v03 (VHH) VHH: EVQLLESGGGLVQPGGSLRISCAASGGSLSNYVLGWFRQAPGKGREFVAAINWRGDITIGPPNVEGRFTISRDNSKNTLYLQMNSLRPEDTAVYYCGAGTPLNPGAYIYDWSYDYWGQGTLVTVSS | nM | 255 |
| NC41v06 (VHH) VHH: EVQLLESGGGLVQPGGSLRLSCAASGGSLSNYVLGWFRQAPGKGREFVAAINWRDDITIGPPNVEGRFTISRDNAKNTLYLQMNSLRPEDTAVYYCGAGTPLNPGAYIYDWSYDYWGQGTLVTVSS | nM | 111 |
| NC41v18 (VHH) VHH: EVQLLESGGGLVQPGGSLRLSCAASGGSLSNYVLGWFRQAPGKGREFVAAINWRDDITIGPPNVEGRFTISRDNSKNTLYLQMNSLRPEDTAVYYCGAGTPLNPGAYIYDWSYDYWGQGTLVTVSS | nM | 116 |
